# Target System: PI3Kα (p110α/p85α) (Homo sapiens, UniProt P42336)
# Construct: GST (N)
# Sequence (P42336 whole entry): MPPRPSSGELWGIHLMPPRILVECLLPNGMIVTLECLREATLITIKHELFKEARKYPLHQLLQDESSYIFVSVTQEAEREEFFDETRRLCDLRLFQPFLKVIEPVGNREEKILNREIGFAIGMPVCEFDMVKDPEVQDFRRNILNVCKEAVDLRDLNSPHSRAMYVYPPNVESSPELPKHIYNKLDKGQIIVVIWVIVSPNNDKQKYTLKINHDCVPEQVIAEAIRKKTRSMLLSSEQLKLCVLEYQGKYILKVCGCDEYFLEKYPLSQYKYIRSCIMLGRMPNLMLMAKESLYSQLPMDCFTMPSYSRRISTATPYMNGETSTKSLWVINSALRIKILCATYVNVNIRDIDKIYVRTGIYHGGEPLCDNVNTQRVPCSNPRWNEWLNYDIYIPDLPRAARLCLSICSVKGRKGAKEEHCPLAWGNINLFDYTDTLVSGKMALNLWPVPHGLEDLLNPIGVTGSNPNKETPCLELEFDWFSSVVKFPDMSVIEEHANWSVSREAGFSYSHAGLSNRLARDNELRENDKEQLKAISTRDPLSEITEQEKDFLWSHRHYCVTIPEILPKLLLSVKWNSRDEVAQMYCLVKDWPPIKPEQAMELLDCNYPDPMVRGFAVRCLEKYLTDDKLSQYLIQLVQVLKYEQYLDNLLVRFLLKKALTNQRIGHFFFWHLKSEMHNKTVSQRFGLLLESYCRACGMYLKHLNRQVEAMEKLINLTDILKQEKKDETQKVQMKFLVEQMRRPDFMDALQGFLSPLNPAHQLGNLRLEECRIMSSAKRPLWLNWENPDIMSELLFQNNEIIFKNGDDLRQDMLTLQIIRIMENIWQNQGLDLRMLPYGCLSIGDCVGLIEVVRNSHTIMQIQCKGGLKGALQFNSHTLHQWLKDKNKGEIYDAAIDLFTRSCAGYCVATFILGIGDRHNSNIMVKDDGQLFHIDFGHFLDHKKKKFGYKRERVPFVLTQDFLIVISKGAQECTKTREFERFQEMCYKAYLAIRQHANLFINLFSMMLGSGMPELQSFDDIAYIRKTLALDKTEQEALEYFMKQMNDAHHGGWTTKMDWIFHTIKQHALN
# Sequence (P27986 whole entry partner): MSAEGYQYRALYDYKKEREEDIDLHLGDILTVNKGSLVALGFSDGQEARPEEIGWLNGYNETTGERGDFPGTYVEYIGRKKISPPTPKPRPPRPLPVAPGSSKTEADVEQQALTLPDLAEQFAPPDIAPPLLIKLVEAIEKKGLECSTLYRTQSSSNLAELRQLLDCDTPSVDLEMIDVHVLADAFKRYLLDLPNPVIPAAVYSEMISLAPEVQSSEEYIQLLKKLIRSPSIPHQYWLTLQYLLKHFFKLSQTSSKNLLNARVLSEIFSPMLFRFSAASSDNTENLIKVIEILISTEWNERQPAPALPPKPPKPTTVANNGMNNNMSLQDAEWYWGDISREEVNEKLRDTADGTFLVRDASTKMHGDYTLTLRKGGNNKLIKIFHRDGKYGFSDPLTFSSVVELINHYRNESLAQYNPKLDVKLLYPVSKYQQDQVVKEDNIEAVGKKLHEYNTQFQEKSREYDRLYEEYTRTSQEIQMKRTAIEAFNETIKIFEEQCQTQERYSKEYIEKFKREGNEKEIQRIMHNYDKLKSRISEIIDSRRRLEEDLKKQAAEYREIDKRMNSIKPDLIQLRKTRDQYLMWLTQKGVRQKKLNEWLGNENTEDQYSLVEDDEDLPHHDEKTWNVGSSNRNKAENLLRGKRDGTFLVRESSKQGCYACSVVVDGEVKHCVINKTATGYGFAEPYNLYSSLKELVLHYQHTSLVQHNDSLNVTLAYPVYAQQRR
# Test Summary: PI3Kα ADP-Glo assay
# Assay Context: 20 μM PIP2, 10 μM ATP, 30 minutes
# Description: (A) an In Vitro Assay which Determines the Ability of a Test Compound to Inhibit PI3Kα. Activity of PI3Kα was measured using ADP-Glo assay from Promega. […] The ADP generated was then detected by ADP-Glo assay from Promega, a luminescent ADP detection assay. […] Second, the Kinase Detection Reagent is added to simultaneously convert ADP to ATP and allow the newly synthesized ATP to be measured using a luciferase/luciferin reaction.
Attribute Measured: IC50

Solved cases below.
| Compound | Endpoint Result |
| --- | --- |
| CN(Cc1cc2nc(-c3cccc(C(=O)O)c3)nc(N3CCOCC3)c2s1)c1ncc(C(=O)NO)cn1 | 100 to 1000 nM |
| CN(Cc1cc2nc(-c3ccc(N)cc3)nc(N3CCOCC3)c2s1)Cc1nc2cc(/C=C/C(=O)NO)ccc2n1C | 1000 to 10000 nM |
| CN(Cc1cc2nc(-c3cncnc3)nc(N3CCOCC3)c2s1)c1ncc(C(=O)NO)cn1 | < 100 nM |
| CN(Cc1cc2nc(-c3cccc4[nH]c(=O)[nH]c34)nc(N3CCOCC3)c2s1)c1ncc(C(=O)NO)cn1 [Compound 316] | < 100 nM |
| O=C(NO)c1cnc(N2CCC(CNCc3cc4nc(-c5cccc6[nH]ncc56)nc(N5CCOCC5)c4s3)CC2)nc1 | 100 to 1000 nM |

### Prompt Write down the reported IC50 (system: PI3Kα (p110α/p85α) (Homo sapiens, UniProt P42336)) of CC1COCC(C)N1c1nc(-c2cccc3[nH]ncc23)nc2cc(CN(C)c3ncc(C(=O)NO)cn3)sc12 (stereo not shown)
### Response 100 to 1000 nM

### Prompt Lab note: record IC50 of Nc1ncc(-c2nc(N3CCOCC3)c3sc(NCCCCCCC(=O)NO)cc3n2)cn1 tested on PI3Kα (p110α/p85α) (Homo sapiens, UniProt P42336).
### Response < 100 nM

====

Known pIC50 of a selection of molecules
# System: HDACs (HeLa cell nuclear extracts)
# Test Summary: HDAC enzymatic activity, Biomol Color de Lys system
# Type: biochemical
# Assay Context: 1 hour, 25° C.
# Experimental: (E) an In Vitro Assay which Determines the Ability of a Test Compound to Inhibit HDAC Enzymatic Activity. HDAC inhibitory activity was assessed using the Biomol Color de Lys system (AK-500, Biomol, Plymouth Meeting, Pa.). […] Relative enzyme activity was measured in the WALLAC Victor II 1420 microplate reader as fluorescence intensity (excitation: 350-380 nm; emission: 440-460 nm). Data were analyzed using GraphPad Prism (v4.0a) with a sigmoidal dose response curve fitting for IC50 calculation.
pIC50: −log10 of the molar value.

Observe how each entry below is paired with its result.
| Molecule | Target System | Attribute Measured | Endpoint Result |
| --- | --- | --- | --- |
| Nc1ccc(-c2nc(N3CCOCC3)c3sc(C(=O)NCC4CCN(c5ncc(C(=O)NO)cn5)CC4)cc3n2)cc1 [Compound 307] | HDACs (HeLa cell nuclear extracts) | pIC50 | > 7.00 |
| COc1ncc(-c2nc(N3CCOCC3)c3sc(CN(C)c4ncc(C(=O)NO)cn4)cc3n2)cn1 [Compound 261] | HDACs (HeLa cell nuclear extracts) | pIC50 | > 7.00 |
| CN(Cc1cc2nc(-c3cc(O)ccc3F)nc(N3CCOCC3)c2s1)c1ncc(C(=O)NO)cn1 [Compound 292] | HDACs (HeLa cell nuclear extracts) | pIC50 | > 7.00 |
| CN(Cc1cc2nc(-c3cccc4[nH]ncc34)nc(N3CCOCC3)c2s1)c1ncc(/C=C/C(=O)NO)cn1 [Compound 75] | HDACs (HeLa cell nuclear extracts) | pIC50 | 6.00 to 7.00 |
| CCCc1nc2cc(/C=C/C(=O)NO)ccc2n1CCNCc1cc2nc(-c3ccc(N)cc3)nc(N3CCOCC3)c2s1 [Compound 325] | HDACs (HeLa cell nuclear extracts) | pIC50 | 6.00 to 7.00 |
| CNc1ccc(-c2nc(N3CCOCC3)c3sc(C(=O)NCC4CCN(c5ncc(C(=O)NO)cn5)CC4)cc3n2)cn1 [Compound 308] | HDACs (HeLa cell nuclear extracts) | pIC50 | > 7.00 |
| O=C(NO)c1ccc2c(ccn2Cc2cc3nc(-c4cccc5[nH]ncc45)nc(N4CCOCC4)c3s2)c1 [Compound 105] | HDACs (HeLa cell nuclear extracts) | pIC50 | 6.00 to 7.00 |
| CN(Cc1cc2nc(-c3cncnc3)nc(N3CCOCC3)c2s1)c1ncc(C(=O)NO)cn1 [Compound 119] | HDACs (HeLa cell nuclear extracts) | pIC50 | > 7.00 |
| CN(CC1CCN(c2ncc(C(=O)NO)cn2)CC1)c1cc2nc(-c3cccc4[nH]ncc34)nc(N3CCOCC3)c2s1 [Compound 49] | HDACs (HeLa cell nuclear extracts) | pIC50 | 6.00 to 7.00 |
| CN(Cc1cc2nc(-c3cccc(NS(C)(=O)=O)c3)nc(N3CCOCC3)c2s1)c1ncc(C(=O)NO)cn1 [Compound 288] | HDACs (HeLa cell nuclear extracts) | pIC50 | > 7.00 |

### Prompt Assign pIC50 to the following record: COCCN(Cc1cc2nc(-c3cccc4[nH]ncc34)nc(N3CCOCC3)c2s1)c1ncc(C(=O)NO)cn1 [Compound 90]
### Response > 7.00

### Prompt Using known records, supply pIC50 for CC(=O)c1cccc(-c2nc(N3CCOCC3)c3sc(CN(C)c4ncc(C(=O)NO)cn4)cc3n2)c1 [Compound 300]
### Response > 7.00

### Prompt Please give measured pIC50 of the following entry: CC(C)(C)CN(Cc1cc2nc(-c3cccc4[nH]ncc34)nc(N3CCOCC3)c2s1)c1ncc(C(=O)NO)cn1 [Compound 83]
### Response 5.00 to 6.00

### Prompt Provide one value: measured pIC50 of CNCCOc1ccc(-c2nc(N3CCOCC3)c3sc(CN(C)c4ncc(C(=O)NO)cn4)cc3n2)cn1 [Compound 258]
### Response > 7.00

### Prompt Please report the measured pIC50 for CNc1ccc(-c2nc(N3CCOCC3)c3sc(CN(C)Cc4nc5cc(/C=C/C(=O)NO)ccc5n4C)cc3n2)cn1 [Compound 329]
### Response 6.00 to 7.00

### Prompt Could you please provide reported pIC50 for CN(Cc1cc2nc(-c3ccc(C(F)(F)F)cc3)nc(N3CCOCC3)c2s1)c1ncc(C(=O)NO)cn1 [Compound 202] ? Thanks!
### Response > 7.00

### Prompt Name the recorded pIC50 of the item CS(=O)(=O)N1CCN(Cc2cc3nc(-c4cccc5[nH]ncc45)nc(N4CCN(CCCCCC(=O)NO)CC4)c3s2)CC1 [Compound 31] in your answer.
### Response 6.00 to 7.00

### Prompt Tell me its pIC50 given CCN(Cc1cc2nc(-c3cccc4[nH]ncc34)nc(N3CCOCC3)c2s1)c1ncc(C(=O)NO)cn1 [Compound 92] as the entry.
### Response > 7.00

### Prompt Please give the documented pIC50 of COc1ccc(-c2nc(N3CCOCC3)c3sc(C(C)N(C)c4ncc(C(=O)NO)cn4)cc3n2)cn1 (centres unmarked) [Compound 247]
### Response > 7.00
